# Target system: hCA IX (Homo sapiens (Human))
# Method notes: CA-catalyzed CO2 hydration stopped-flow inhibition assay, hCA IX
Observed property: pKi
Reminder that pKi is minus the log10 of a molar concentration.

Data request: // lookup pKi for NS(=O)(=O)c1ccc(CCNC(=O)Cn2ccnc2[N+](=O)[O-])cc1 [Compound 4d]
Data returned: 8.14

----------
# Target system: hCA IX (Homo sapiens (Human), UniProt Q16790)
# Method notes: CA-catalyzed CO2 hydration stopped-flow inhibition assay, hCA IX
# Condition summary: read-out: KI hCA IX; stopped-flow CO2 hydration, pH 7.5, 15 min preincubation
Some compounds, each annotated with its measured pKi.
Reminder that pKi is minus the log10 of a molar concentration.

Data request: // lookup pKi for NS(=O)(=O)c1ccc(NC(=O)Cn2ccnc2[N+](=O)[O-])cc1 [Compound 4a]
Data returned: 7.15

Data request: // lookup pKi for Cc1ncc([N+](=O)[O-])n1CCNC(=S)NCc1ccc(S(N)(=O)=O)cc1 [Compound 6c]
Data returned: 8.08

Data request: // lookup pKi for Cc1ncc([N+](=O)[O-])n1CCNC(=S)NCCc1ccc(S(N)(=O)=O)cc1 [Compound 6d]
Data returned: 8.11

Data request: // lookup pKi for Cc1ncc([N+](=O)[O-])n1CCNC(=S)Nc1ccc(S(N)(=O)=O)cc1 [Compound 6a]
Data returned: 8.14

----------
Some compounds, each annotated with its measured melting point.

Solved cases below.
NS(=O)(=O)c1ccc(NC(=O)Cn2ccnc2[N+](=O)[O-])cc1 : 163 to 165 °C
Cc1ncc([N+](=O)[O-])n1CCNS(N)(=O)=O : 122 °C
NS(=O)(=O)c1ccc(CCNC(=O)Cn2ccnc2[N+](=O)[O-])cc1 : 139 to 141 °C

Now consider the entry below.
Data request: // lookup melting point for "NS(=O)(=O)c1cccc(NC(=O)Cn2ccnc2[N+](=O)[O-])c1"
Data returned: 195 to 197 °C
